The measurements presented in this section are drawn from patent US20240376185A1.

target: tetanus neurotoxin (TeNT), authentic tetanus holotoxin (Clostridium tetani, UniProt P04958 2-1315); test: ELISA, TeNT captured with cAb-TT2, biotinylated binder
Sequence (P04958 2-457 limits assumed, chain 1 of 2): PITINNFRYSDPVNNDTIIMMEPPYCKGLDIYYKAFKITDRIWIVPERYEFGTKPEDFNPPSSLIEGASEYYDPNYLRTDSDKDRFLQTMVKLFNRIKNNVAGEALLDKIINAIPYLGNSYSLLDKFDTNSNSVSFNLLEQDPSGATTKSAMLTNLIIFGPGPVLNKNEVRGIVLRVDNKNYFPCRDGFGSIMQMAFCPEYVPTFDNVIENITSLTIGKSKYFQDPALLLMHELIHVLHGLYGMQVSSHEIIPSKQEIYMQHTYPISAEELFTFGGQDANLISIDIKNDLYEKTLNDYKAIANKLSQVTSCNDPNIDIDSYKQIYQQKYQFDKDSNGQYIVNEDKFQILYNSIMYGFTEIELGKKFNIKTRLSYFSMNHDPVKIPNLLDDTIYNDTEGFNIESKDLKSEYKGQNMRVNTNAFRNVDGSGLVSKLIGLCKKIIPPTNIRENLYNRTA
Sequence (P04958 458-1315 limits assumed, chain 2 of 2): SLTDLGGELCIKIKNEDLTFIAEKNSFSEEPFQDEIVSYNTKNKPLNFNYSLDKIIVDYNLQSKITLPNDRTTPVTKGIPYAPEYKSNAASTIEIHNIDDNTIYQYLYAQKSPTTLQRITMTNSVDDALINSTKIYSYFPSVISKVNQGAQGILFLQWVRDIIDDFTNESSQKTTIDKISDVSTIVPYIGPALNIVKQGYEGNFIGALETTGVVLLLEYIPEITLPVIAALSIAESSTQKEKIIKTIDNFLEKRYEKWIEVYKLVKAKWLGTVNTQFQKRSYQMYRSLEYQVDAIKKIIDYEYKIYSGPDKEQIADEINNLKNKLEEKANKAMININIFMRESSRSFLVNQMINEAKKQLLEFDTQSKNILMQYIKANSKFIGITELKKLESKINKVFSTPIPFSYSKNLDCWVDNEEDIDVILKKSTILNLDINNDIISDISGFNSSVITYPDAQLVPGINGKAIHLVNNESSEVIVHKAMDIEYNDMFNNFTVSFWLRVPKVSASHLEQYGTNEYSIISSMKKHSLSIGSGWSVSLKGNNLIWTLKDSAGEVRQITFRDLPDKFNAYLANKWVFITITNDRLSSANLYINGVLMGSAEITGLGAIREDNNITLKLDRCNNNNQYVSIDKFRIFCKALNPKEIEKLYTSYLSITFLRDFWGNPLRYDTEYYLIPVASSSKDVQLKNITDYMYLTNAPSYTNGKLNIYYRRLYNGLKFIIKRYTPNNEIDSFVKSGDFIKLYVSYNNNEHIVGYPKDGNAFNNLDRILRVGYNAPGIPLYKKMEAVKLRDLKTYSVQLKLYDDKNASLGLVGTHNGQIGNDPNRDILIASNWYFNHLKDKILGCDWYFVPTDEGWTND
Quantity name: maximal absorbance at 450 nm

>  <Binder>
SVT13L (VHH) VHH: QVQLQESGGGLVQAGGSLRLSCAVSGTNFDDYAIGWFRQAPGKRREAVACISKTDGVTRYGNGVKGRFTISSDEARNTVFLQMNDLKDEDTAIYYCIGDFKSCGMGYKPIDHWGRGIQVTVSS

>  <Observed measurement>
1.06

$$$$
>  <Binder>
SVT22L (VHH) VHH: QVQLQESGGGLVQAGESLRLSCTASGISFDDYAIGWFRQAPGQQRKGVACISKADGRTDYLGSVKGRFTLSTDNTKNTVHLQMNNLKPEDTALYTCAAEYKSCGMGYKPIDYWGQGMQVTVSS

>  <Observed measurement>
0.799

$$$$
>  <Binder>
SVT34L (VHH) VHH: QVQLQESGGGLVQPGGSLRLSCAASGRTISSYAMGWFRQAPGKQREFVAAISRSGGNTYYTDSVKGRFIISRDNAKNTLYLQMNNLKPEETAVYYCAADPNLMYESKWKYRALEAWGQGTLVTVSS

>  <Observed measurement>
0.669

$$$$
>  <Binder>
SVT15L-3FW4M (VHH) VHH: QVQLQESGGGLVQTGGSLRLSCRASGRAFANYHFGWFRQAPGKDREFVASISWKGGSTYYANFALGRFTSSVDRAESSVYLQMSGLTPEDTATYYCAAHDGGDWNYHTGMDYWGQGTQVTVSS

>  <Observed measurement>
0.697

$$$$
